Give measured CC50 at 3 days for each item. Keep answers brief.
assay: in vitro; format: cell-based; conditions: human, HepG2 or HepG2.117 cells, 3-days incubation (unmarked values), ATPlite; mean value

Known CC50 at 3 days results, listed for orientation:
{"compound": "CC(C)Nc1nc2c(c(=O)n1-c1ccc3c(c1)C(=O)NC3)C[C@@H](C)N(C(=O)c1ccc(Cl)c(Cl)c1)C2", "attribute-measured": "CC50 at 3 days", "observed-measurement": "> 50 µM"}
{"compound": "CC(C)Nc1nc2c(c(=O)n1-c1ccc(S(C)(=O)=O)cc1)[C@H](C)CN(C(=O)c1ccc(Cl)c(Cl)c1)C2 (single isomer, unassigned) [Compound C154B]", "attribute-measured": "CC50 at 3 days", "observed-measurement": "> 50 µM"}

Item under review: `COc1ccc(CN(C)c2nc3c(c(=O)[nH]2)CCN(C(=O)c2ccc(Cl)c(Cl)c2)C3)cc1` . Reported CC50 at 3 days?
> 50 µM

----------
Give measured EC50 for each item. Keep answers brief.
system: HBV (HepG2.117 cell line, inducibly HBV producing); experiment: Anti-HBV activity: intracellular HBV DNA by real-time PCR in HepG2.117 cells after 3 days of treatment; format: cell-based, hepatitis B virus; conditions: Hepatitis B virus, HepG2.117, 72 h, HepG2.117 cells, 3 days of treatment, intracellular HBV DNA by real-time PCR; mean value; read-out: EC50 (μM, mean value)

Known EC50 results, listed for orientation:
{"molecule": "CC(C)Nc1nc2c(c(=O)n1-c1ccc(-c3ncc(F)cc3F)cc1)CCN(C(=O)c1ccc(Cl)c(Cl)c1)C2 [Compound C171]", "observed-measurement": "3.95 µM"}
{"molecule": "CC(C)Nc1nc2c(c(=O)n1-c1ccc(S(C)(=O)=O)cc1)CCN(C(=O)c1cc(Cl)c(Cl)s1)C2 [Compound C181]", "observed-measurement": "2.56 µM"}
{"molecule": "CNC(=O)c1ccc(-n2c(N[C@@H](C)c3ccnn3C)nc3c(c2=O)C[C@@H](C)N(C(=O)c2ccc(Cl)c(Cl)c2)C3)cc1 (single isomer, unassigned) [Compound C372b]", "observed-measurement": "2.54 µM"}
{"molecule": "COC(=O)[C@H]1CC[C@H](n2c(NC(C)C)nc3c(c2=O)C[C@@H](C)N(C(=O)c2ccc(Cl)c(Cl)c2)C3)CC1 [Compound C370]", "observed-measurement": "0.85 µM"}
{"molecule": "CNC(=O)c1ccc(-n2c(N[C@@H](C)c3ccccn3)nc3c(c2=O)C[C@@H](C)N(C(=O)c2ccc(Cl)c(Cl)c2)C3)cc1 (single isomer, unassigned) [Compound C321]", "observed-measurement": "0.94 µM"}
{"molecule": "COc1ccc(CNc2nc3c(c(=O)[nH]2)CCN(C(=O)c2ccc(Br)c(C)c2)C3)cc1 [Compound C104]", "observed-measurement": "1.8 µM"}
{"molecule": "COc1ccc(CNc2nc3c(c(=O)[nH]2)CCN(C(=O)c2ccc(C#N)c(Cl)c2)C3)cc1 [Compound C82]", "observed-measurement": "23.4 µM"}
{"molecule": "COc1ccc(CNc2nc3c(c(=O)n2-c2cccnc2)CCN(C(=O)c2ccc(Cl)c(Cl)c2)C3)cc1 [Compound C68]", "observed-measurement": "0.66 µM"}
{"molecule": "CC[C@@H](C)Nc1nc2c(c(=O)n1-c1ccc(C(=O)NC)cc1)C[C@@H](C)N(C(=O)c1ccc(Cl)c(Cl)c1)C2 [Compound C258]", "observed-measurement": "0.05 µM"}
{"molecule": "COc1ccc(CNc2nc3c(c(=O)n2Cc2ccccc2)CCN(C(=O)c2ccc(Cl)c(Cl)c2)C3)cc1 [Compound C41]", "observed-measurement": "8.7 µM"}

Hi, could you look up EC50 for each item in my list?
1. COc1ccc(CNc2nc3c(c(=O)n2-c2ccccc2F)CCN(C(=O)c2ccc(Cl)c(Cl)c2)C3)cc1 [Compound C14]
2. CCNc1nc2c(c(=O)n1-c1ccccc1OC)CCN(C(=O)c1ccc(Cl)c(Cl)c1)C2 [Compound C38]
3. CC(C)Nc1nc2c(c(=O)n1-c1ccc(N3CCCC3CO)cc1)C[C@@H](C)N(C(=O)c1ccc(Cl)c(Cl)c1)C2 (stereo partly shown) [Compound C215]

1 µM
6.87 µM
0.21 µM
